Ref: patent US20240246960A1

Recorded measurements of EC50, one per entry
biological target: pDNA-PK ser2056 induction in HCT116 spheroids (Homo sapiens, UniProt P78527); construct: endogenous in cells; host or cells: HCT116 multicellular tumour spheroids; test: Multicellular tumour spheroid + radiation, pDNA-PK inhibition, HCT116; assay type: cell-based; details: Example 7; spheroid, cell line HCT115 [sic]; 20 Gy; 20% O2; read-out: EC50 (pDNA-PK inhibition, immunohistochemical endpoint)

In the examples that follow, each entry is paired with its recorded EC50.
• O=C(N[C@H]1CC[C@@H](Oc2nc(N3CCOCC3)cc3ncccc23)CC1)c1cncs1 = 500 to 1000 nM
• FC(F)c1ccc2c(O[C@H]3CC[C@@H](Nc4ncccn4)CC3)nc(N3CCOCC3)cc2n1 = 10000 to 100000 nM
• CCOCCOc1cnc(N[C@H]2CC[C@@H](Oc3nc(N4CCOCC4)cc4ncc(O)cc34)CC2)nc1 [Compound 19b] = 10 to 500 nM

May I ask what EC50 has been recorded for "CN(c1ncccn1)[C@H]1CC[C@@H](Oc2nc(N3CCOCC3)cc3ncc(NS(C)(=O)=O)cc23)CC1" ?
500 to 1000 nM

May I ask what EC50 has been recorded for "Clc1cnc(N[C@H]2CC[C@@H](Oc3nc(N4CCOCC4)cc4ncccc34)CC2)nc1" ?
1000 to 10000 nM

May I ask what EC50 has been recorded for "O=C(N[C@H]1CC[C@@H](Oc2nc(N3CCOCC3)cc3ncccc23)CC1)c1ccnnc1" ?
1000 to 10000 nM

May I ask what EC50 has been recorded for "O=C(N[C@H]1CC[C@@H](Oc2nc(N3CCOCC3)cc3ncccc23)CC1)c1ccco1" ?
10 to 500 nM

May I ask what EC50 has been recorded for Brc1cnc2cc(N3CCOCC3)nc(O[C@H]3CC[C@@H](Nc4ncccn4)CC3)c2c1 [Compound 18a] ?
1000 to 10000 nM

May I ask what EC50 has been recorded for "O=C(N[C@H]1CC[C@@H](Oc2nc(N3CCOCC3)cc3ncccc23)CC1)c1ncc[nH]1" ?
500 to 1000 nM

May I ask what EC50 has been recorded for "Cc1cnc(C(=O)N[C@H]2CC[C@@H](Oc3nc(N4CCOCC4)cc4ncccc34)CC2)nc1" ?
1000 to 10000 nM

May I ask what EC50 has been recorded for "Cc1nc(N[C@H]2CC[C@@H](Oc3nc(N4CCOCC4)cc4ncccc34)CC2)c2occc2n1" ?
500 to 1000 nM

May I ask what EC50 has been recorded for FC(F)(F)c1cncn1[C@H]1CC[C@@H](Oc2nc(N3CCOCC3)cc3ncccc23)CC1 [Compound 17j] ?
500 to 1000 nM

May I ask what EC50 has been recorded for "O=C(N[C@H]1CC[C@@H](Oc2nc(N3CCOCC3)cc3ncccc23)CC1)c1cnccn1" ?
1000 to 10000 nM

May I ask what EC50 has been recorded for "COc1cnc(N[C@H]2CC[C@@H](Oc3nc(N4CCOCC4)cc4ncc(I)cc34)CC2)nc1" ?
10000 to 100000 nM

May I ask what EC50 has been recorded for Cc1c(C(F)(F)F)cnn1[C@H]1CC[C@@H](Oc2nc(N3CCOCC3)cc3ncccc23)CC1 [Compound 17h] ?
10000 to 100000 nM

May I ask what EC50 has been recorded for "O=C(N[C@H]1CC[C@@H](Oc2nc(N3CCOCC3)cc3ncccc23)CC1)N1CCOCC1" ?
1000 to 10000 nM
